Test system: α-smooth muscle actin (aSMA) positive LL29 cells
Test: Inhibition of the fibrotic process: αSMA staining in TGF-β1 treated LL29 fibroblasts from IPF patients
Settings: Homo sapiens, Fibroblast, 96 h
METRIC: pEC50
pEC50 is defined as minus the log10 of a concentration measured in mol/L.

Solved entries (count: 3):
pEC50 of CN(C)CCNc1cc(C(=O)Nc2cc3cc(-c4cnn(C)c4)cnc3cn2)ccn1 on α-smooth muscle actin (aSMA) positive LL29 cells?
5.28

pEC50 of CNC(=O)c1ccc(C(=O)Nc2cc3nc(-c4cn(C)nn4)ccc3cn2)cn1 on α-smooth muscle actin (aSMA) positive LL29 cells?
5.44

pEC50 of CN1CC=C(c2cc(C(=O)Nc3cc4cc(-c5cncc(NC(C)(C)C)n5)cnc4cn3)ccn2)CC1 on α-smooth muscle actin (aSMA) positive LL29 cells?
5.84

Next:
pEC50 of CN1CCN(c2cc(C(=O)Nc3cc4cc(-c5cncs5)ncc4cn3)ccn2)CC1 on α-smooth muscle actin (aSMA) positive LL29 cells?
5.60

pEC50 of CN1CCC(Nc2cc(C(=O)Nc3cc4nc(-c5cnn(C)c5)ccc4cn3)ccn2)CC1 on α-smooth muscle actin (aSMA) positive LL29 cells?
6.15
